# Tested on: EKVX NSCLC
# assay explanation: NCI tumour cell line growth inhibition, 48 h
Can you tell me TGI for the items I'm about to list?

Return TGI for the following compound: COc1cc(C2=C(C#Cc3ccccc3)COC2=O)cc(OC)c1OC
38.1 µM

Name the recorded TGI of the compound listed here: Cn1c2ccccc2c2c(=O)[nH]c(=O)[nH]c21
> 100 µM

Report TGI, nothing else, for this compound: C=C1CCC2C(C)(C)CCC[C@]2(C)[C@H]1CO (some centres undefined)
> 100 µM

Input CN(C)c1ccccc1CN1CCCN(Cc2ccccc2N(C)C)C1c1ccncc1 , output reported TGI.
38 µM

Note TGI for the compound shown: CC1(C)[C@@H](O[C@@H]2OC[C@@H](O[C@@H]3O[C@H](CO)[C@@H](O)[C@H](O)[C@H]3O[C@@H]3OC[C@@H](O)[C@H](O)[C@H]3O)[C@H](O)[C@H]2O[C@@H]2O[C@H](CO)[C@@H](O)[C@H](O)[C@H]2O)CC[C@]2(C)[C@H]3CC[C@]45OC[C@@]6(CC[C@](C)(C=O)C[C@H]64)[C@H](O)C[C@@]5(C)[C@]3(C)CC[C@@H]12
1.96 µM

Complete the entry with TGI for Nc1nc(-c2ccccc2)nc2c1[n+]([O-])c1ccccc1[n+]2[O-]
> 100 µM

Please indicate TGI recorded for CCc1cccc(C(C)C)c1N1C(=O)C(=O)C(c2nc3ccccc3s2)C(=O)C1=O
> 50 µM

For CC(C)C(C)C(C)(C)P(C)(C)=O (centres undefined) , write its TGI.
> 100 µM

Using known records, supply TGI for COc1ccc(/C=C2\CCC(CNc3ccc(OC)cc3)C2=O)cc1 (centres undefined)
> 73.5 µM
